- PROTOCOL DETAILS: Tigecycline plasma PK and % F after intraduodenal (ID) injection in anesthetized rats
- Assay type: in vivo, Sprague-Dawley Rats
- CONDITION SUMMARY: female, Sprague-Dawley, rat, plasma, other: intraduodenal bolus injection, 4.8 mg/kg, ID, PBS, 4.8 mg/kg (RA851); 30 min
- Experimental: Animals weighed approximately 250 g at the time of testing. Rats were fasted overnight (with water available), prior to dosing. Intravenous (IV) doses were administered as a bolus injection into the left carotid […] at a dose volume of 1.6 mL/kg. […] Female rats were maintained in groups of 3 per polycarbonate (or equivalent) shoebox cage with fresh wood chip bedding at 20-22° C. under a 12 hour on/off light:dark cycle. […] Animal weights were determined post-anesthesia induction. […]
MEASURED ENDPOINT: concentration at 30 min
I'd appreciate it if you included the unit after the number.

Task: Give reported concentration at 30 min value for CN(C)c1cc(NC(=O)CNC(C)(C)C)c(O)c2c1C[C@H]1C[C@H]3[C@H](N(C)C)C(O)=C(C(N)=O)C(=O)[C@@]3(O)C(O)=C1C2=O [Tigecycline]
Output: 33 ng/mL

* * *

- PROTOCOL DETAILS: Tigecycline plasma PK and % F after intraduodenal (ID) injection in anesthetized rats
- Format: in vivo, Sprague-Dawley Rats
- CONDITION SUMMARY: female, Sprague-Dawley, rat, plasma, other: intraduodenal bolus injection, 4.8 mg/kg, ID, PBS, 4.8 mg/kg (RA851); 60 min
MEASURED ENDPOINT: concentration at 60 min (µg/mL)
Reply with just the number (in µg/mL).

Task: Give reported concentration at 60 min value for CN(C)c1cc(NC(=O)CNC(C)(C)C)c(O)c2c1C[C@H]1C[C@H]3[C@H](N(C)C)C(O)=C(C(N)=O)C(=O)[C@@]3(O)C(O)=C1C2=O [Tigecycline]
Output: 0

* * *

- PROTOCOL DETAILS: Kanamycin and tobramycin plasma PK after IV bolus in dogs
- Assay type: in vivo, Beagle dogs
- CONDITION SUMMARY: female, Beagle, dog, plasma, iv, 0.1 mg, single IV bolus 0.10 mg; read-out: Cmax, Mean
MEASURED ENDPOINT: Cmax (ng/mL)
Reply with just the number (in ng/mL).

Task: Give reported Cmax value for `NC[C@H]1O[C@H](O[C@H]2[C@H](O)[C@@H](O[C@H]3O[C@H](CO)[C@@H](O)[C@H](N)[C@H]3O)[C@H](N)C[C@@H]2N)[C@H](O)[C@@H](O)[C@@H]1O`
Output: 50

* * *

- PROTOCOL DETAILS: Tigecycline plasma PK and % F after intraduodenal (ID) injection in anesthetized rats
- Assay type: in vivo, Sprague-Dawley Rats
- CONDITION SUMMARY: female, Sprague-Dawley, rat, plasma, […], RA869, ID, 26 mM LLC only, […]; read-out: % F, mean
- Method: Animals weighed approximately 250 g at the time of testing. Rats were fasted overnight (with water available), prior to dosing. Intravenous (IV) doses were administered as a bolus injection into the left carotid […] at a dose volume of 1.6 mL/kg. […] Female rats were maintained in groups of 3 per polycarbonate (or equivalent) shoebox cage with fresh wood chip bedding at 20-22° C. under a 12 hour on/off light:dark cycle. […] Animal weights were determined post-anesthesia induction. […]
MEASURED ENDPOINT: bioavailability (%)
Reply with just the number (in %).

Task: Give reported bioavailability value for CN(C)c1cc(NC(=O)CNC(C)(C)C)c(O)c2c1C[C@H]1C[C@H]3[C@H](N(C)C)C(O)=C(C(N)=O)C(=O)[C@@]3(O)C(O)=C1C2=O [Tigecycline]
Output: 8.9
